TESTED ON: BRD4 bromo domain 1 [BRD4(1)] (Homo sapiens, UniProt O60885)
Construct: N-terminally His6-tagged BRD4(1) (amino acids 67-152)
PROCEDURE TEXT: BRD4(1)/acetylated peptide H4 binding assay (TR-FRET)
MEASUREMENT SETUP: inhibition of interaction between His6-tagged BRD4(1) (amino acids 67-152) and acetylated histone H4 peptide
METRIC NAME: IC50 (µM)

Fill in: IC50 of C[C@@H]1C(=O)N(C)c2ccc(Nc3ccc(S(=O)(=O)N[C@H]4CC[C@H](N5CCN(CC6CC6)CC5)CC4)cc3)nc2N1C1CCOCC1 is ___
0.237

1. COc1cc(C(=O)N2CC3(CCS3(=O)=O)C2)ccc1Nc1ccc2c(n1)N(C(C)C)[C@H](C)C(=O)N2C
2. C[C@@H]1C(=O)N(C)c2ccc(Nc3ccc(C(=O)NCCN4CCN(C)CC4)cc3)nc2N1Cc1ccccc1
3. CC(C)N1CCN(C(=O)c2ccc(Nc3ccc4c(n3)N(C3CCCCCC3)[C@H](C)C(=O)N4C)cc2)CC1
4. C[C@@H]1C(=O)N(C)c2ccc(Nc3ccc(S(=O)(=O)N4CCOCC4)cc3)nc2N1C1CCOCC1
Number of molecules to sort: 4. Sort criterion: IC50, ascending. When ranking, write the labels in the order the request describes.
4, 2, 1, 3
(4: 0.056 µM, 2: 0.089 µM, 1: 0.141 µM, 3: 0.325 µM)

1. C[C@@H]1C(=O)N(C)c2ccc(Nc3ccc(S(=O)(=O)N(C)C)cc3)nc2N1C1CCCC1
2. C[C@@H]1C(=O)N(C)c2ccc(Nc3ccc(C(=O)N4CCN(C)CC4)cc3)nc2N1C1CCOCC1
Please state the entry with greater IC50 among 1 and 2 . Lab note: record the label of whichever item you select.
2
(2: 0.139 µM, 1: 0.078 µM)

a. COc1cc(Nc2ccc3c(n2)N(C2CCOCC2)[C@H](C)C(=O)N3C)ccc1S(=O)(=O)N1CCN(C)CC1
b. COc1cc(C(=O)NCCN2CCOCC2)ccc1Nc1ccc2c(n1)N(C(C)C)[C@H](C)C(=O)N2C
c. CC(C)N1c2nc(Nc3ccc(C(=O)N[C@H]4CC[C@H](N5CCN(CC6CC6)CC5)CC4)cc3)ccc2N(C)C(=O)[C@H]1C
d. COc1cc(C(=O)N2CCN(C(C)C)CC2)ccc1Nc1ccc2c(n1)N(C1CCCCCC1)[C@H](C)C(=O)N2C
Falling order of IC50, please. When ranking, write the labels in the order the request describes.
c, d, b, a

---

TESTED ON: BRD4 bromo domain 1 [BRD4(1)] (Homo sapiens, UniProt O60885)
Construct: N-terminally His6-tagged BRD4(1) (amino acids 67-152)
PROCEDURE TEXT: BRD4(1)/acetylated peptide H4 binding assay (TR-FRET)
MEASUREMENT SETUP: inhibition of interaction between His6-tagged BRD4(1) (amino acids 67-152) and acetylated histone H4 peptide
pIC50: −log10 of the molar value.
METRIC NAME: pIC50

Worked set:
Fill in: pIC50 of C[C@@H]1C(=O)N(C)c2ccc(Nc3ccc(C(=O)NCCN4CCN(C)CC4)cc3)nc2N1C1CCOCC1 is ___
6.86

Fill in: pIC50 of Cc1cc(C(=O)N2CCN(C)CC2)ccc1Nc1ccc2c(n1)N(C1CCOCC1)[C@H](C)C(=O)N2C is ___
6.59

Fill in: pIC50 of C[C@@H]1C(=O)N(C)c2ccc(Nc3ccc(S(=O)(=O)N(C)C)cc3)nc2N1C1CCCCC1 is ___
6.51

a. COc1cc(S(=O)(=O)NC2CCN(C)CC2)ccc1Nc1ccc2c(n1)N(C1CCOCC1)[C@H](C)C(=O)N2C
b. COc1cc(C(=O)NCCN2CCN(C)CC2)ccc1Nc1ccc2c(n1)N(C1CCOCC1)[C@H](C)C(=O)N2C
Of a versus b , which is the one with smaller reported pIC50? Lab note: record the label of whichever item you select.
b

1. C[C@@H]1C(=O)N(C)c2ccc(Nc3ccc(S(=O)(=O)N(C)C)cc3)nc2N1C1CCCCCC1
2. C[C@@H]1C(=O)N(C)c2ccc(Nc3ccc(C(=O)NC4CN(C)C4)cc3)nc2N1C1CCCCCC1
Of 1 versus 2 , which is the one with smaller reported pIC50? Lab note: record the label of whichever item you select.
1
(1: 6.23, 2: 6.73)

The measurements presented in this section are drawn from patent US20160193206A1.
